Values compiled from patent US9790221B2.

target: IRAK1 (His-TEV-IRAK1 (194-712)) (Homo sapiens (Human)); test: IRAK1 enzymatic assay; format: biochemical
Sequence (P51617 194-712): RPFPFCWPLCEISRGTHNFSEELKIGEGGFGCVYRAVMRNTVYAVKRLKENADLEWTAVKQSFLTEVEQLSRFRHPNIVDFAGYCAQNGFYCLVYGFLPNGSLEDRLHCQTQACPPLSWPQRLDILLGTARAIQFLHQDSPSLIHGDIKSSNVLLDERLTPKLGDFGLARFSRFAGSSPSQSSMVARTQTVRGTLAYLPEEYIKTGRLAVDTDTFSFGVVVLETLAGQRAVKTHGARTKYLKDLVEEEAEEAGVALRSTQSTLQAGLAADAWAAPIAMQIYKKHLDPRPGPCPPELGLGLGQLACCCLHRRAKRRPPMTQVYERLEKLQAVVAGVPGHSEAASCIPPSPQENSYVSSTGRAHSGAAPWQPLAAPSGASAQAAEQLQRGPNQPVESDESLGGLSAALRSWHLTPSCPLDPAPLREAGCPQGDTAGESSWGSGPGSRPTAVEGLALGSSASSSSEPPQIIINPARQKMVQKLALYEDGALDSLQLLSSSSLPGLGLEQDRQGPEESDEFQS
Structures can show the parent of a compound that is named as a salt.
ENDPOINT_NAME: IC50

Input: Fill in: IC50 of "Cn1cc(-c2cccc(-c3ncc(-c4ccn(C)n4)c(NC4CC(F)(F)C4)n3)c2)cn1" is ___
Output: > 5000 nM

Input: And what about the compound "Cn1cc(-c2cccc(-c3ncc(-c4cnn(C)c4)c(N[C@H]4C[C@H](O)C4)n3)c2)cn1" ?
Output: 1000 to 5000 nM

Input: Then what about the compound "Cn1cc(-c2cccc(-c3ncc(-c4cnn(C)c4)c(NCCO)n3)c2)cn1" ?
Output: 1000 to 5000 nM

Input: Follow-up item: Cn1cc(-c2cccc(-c3ncc(-c4cnn(C)c4)c(N[C@H]4CCC[C@H](F)[C@H]4O)n3)c2)cn1 (single isomer, unassigned)
Output: 100 to 1000 nM

Input: And "Cn1cc(-c2cccc(-c3ncc(-c4cnn(C)c4)c(N[C@H]4CCCC[C@@H](O)[C@H]4O)n3)c2)cn1" ?
Output: < 100 nM

Input: Input Cn1cc(-c2cccc(-c3ncc(-c4cnn(C)c4)c(N4CCC(O)C4)n3)c2)cn1 (centres unmarked)
Output: 1000 to 5000 nM

Further cases:
Input: Query (compound): "Cn1cc(-c2cccc(-c3ncc(-c4cnn(C)c4)c(NC4CCN(S(C)(=O)=O)CC4)n3)c2)cn1" ; field requested: IC50
Output: < 100 nM

Input: Queued: "Cc1nnc(-c2cnc(-c3cccc(-c4cnn(C)c4)c3)nc2NC2CCN(S(C)(=O)=O)CC2)s1"
Output: 100 to 1000 nM

Input: Also, "Cn1cc(-c2cccc(-c3ncc(-c4cnn(C)c4)c(NCCN4CCCC4=O)n3)c2)cn1" please.
Output: > 5000 nM

Input: Now consider Cn1cc(-c2cccc(-c3ncc(-c4cnn(C)c4)c(NCC(N)=O)n3)c2)cn1 [Example 25, formate] .
Output: > 5000 nM

Input: Next up: Cn1cc(-c2cccc(-c3ncc(-c4cnn(C)c4)c(NCC4(O)CCNCC4(C)C)n3)c2)cn1 (centres unmarked)
Output: 1000 to 5000 nM

Input: Query "Cn1cc(-c2cccc(-c3ncc(-c4cnn(C)c4)c(NC[C@@H]4CCCC[C@H]4O)n3)c2)cn1" next
Output: 1000 to 5000 nM

Input: Here is the next compound: "Cn1cc(-c2cccc(-c3ncc(-c4cnn(C)c4)c(NCC(F)(F)C(F)(F)C(F)(F)F)n3)c2)cn1"
Output: 100 to 1000 nM

Input: Please give the result for Cn1cc(-c2cccc(-c3ncc(-c4cnn(C)c4)c(NC4CC5CCC4N5S(C)(=O)=O)n3)c2)cn1 (centres unmarked) too.
Output: 100 to 1000 nM

Input: Moving on to the next compound: Cn1cc(-c2cccc(-c3ncc(-c4cnn(C)c4)c(NC4C5CCCC4CC(NS(C)(=O)=O)C5)n3)c2)cn1 (centres unmarked)
Output: > 5000 nM

Input: Proceed to Cn1cc(-c2cccc(-c3ncc(-c4cnn(C)c4)c(NC4CC(F)C4)n3)c2)cn1 (centres unmarked)
Output: 100 to 1000 nM

Input: Also "Cn1cc(-c2cccc(-c3ncc(-c4ccn(C)n4)c(NCCCCO)n3)c2)cn1" ?
Output: 100 to 1000 nM

Input: // next record "Cn1cc(-c2cccc(-c3ncc(-c4cnn(C)c4)c(NCCC4(O)CCCC4)n3)c2)cn1"
Output: 100 to 1000 nM
